- System: UV4 cells
- run_description: cells
- Format: cell-based
- stated_conditions: Cricetulus griseus, UV4, light or radiation study, 4 h, read-out: IC50, P (unirradiated prodrug)
pIC50: −log10 of the molar value.
recorded_metric: pIC50

* Cc1cccc2c(N)c3cccc(C(=O)NCC[N+](C)(C)Cc4ccccc4[N+](=O)[O-])c3nc12 [Compound 18] | 5.51
* C[N+](C)(CCNC(=O)c1cccc2cc3ccccc3nc12)Cc1ccc([N+](=O)[O-])s1 [Compound 16] | 4.40

###

- Tested on: UV4 cells
- run_description: cells
- Type: cell-based
- stated_conditions: Cricetulus griseus, UV4, light or radiation study, 4 h, read-out: IC50, P (unirradiated prodrug)
recorded_metric: log10 of IC50 (log10 of the value in µM)

- Cc1cccc2c(N)c3cccc(C(=O)NCC[N+](C)(C)Cc4nc(N5CCOCC5)sc4[N+](=O)[O-])c3nc12: 0.00
- Cc1cccc2c(N)c3cccc(C(=O)NCC[N+](C)(C)Cc4c([N+](=O)[O-])ncn4C)c3nc12: 0.28
- C[N+](C)(Cc1ccc([N+](=O)[O-])cc1)c1ccc2c(c1)N(S(C)(=O)=O)CC2CCl (stereo not shown): 3.06
- Cc1cccc2c(N)c3cccc(C(=O)NCC[N+](C)(C)Cc4ccc([N+](=O)[O-])s4)c3nc12: -0.80
- Cc1cccc2c(N)c3cccc(C(=O)NCC[N+](C)(C)Cc4ccc([N+](=O)[O-])n4C)c3nc12: 0.30
- CN(C)CCNc1ccc(NCC[N+](C)(C)Cc2ccc([N+](=O)[O-])cc2)c2c1C(=O)c1c(O)ccc(O)c1C2=O: -0.57
- Cc1cccc2c(N)c3cccc(C(=O)NCC[N+](C)(C)Cc4ccc([N+](=O)[O-])cc4)c3nc12: -0.11

###

- Test system: UV4 cells
- run_description: cells
- Type: cell-based
- stated_conditions: Cricetulus griseus, UV4, 4 h, read-out: IC50, E (authentic effector)
pIC50: −log10 of the molar value. Where a name gives a salt, the structure may show the parent alone.
Each entry below carries its recorded pIC50.
recorded_metric: pIC50

- NCCNCCCNC(=O)c1cccc2cc3ccccc3nc12 [Compound 47, trihydrochloride, reference compound]: 5.80
- CN(C)CCNc1ccc(NCCN(C)C)c2c1C(=O)c1c(O)ccc(O)c1C2=O [Compound 46, reference compound]: 8.68
- CN(C)CCNC(=O)c1cccc2cc3ccccc3nc12 [Compound 37, reference compound]: 6.31
- CN(C)c1ccc2c(c1)N(S(C)(=O)=O)CC2CCl (centres unmarked) [Compound 12, reference compound]: 4.82
- Cc1cccc2c(N)c3cccc(C(=O)NCCN(C)C)c3nc12 [Compound 38, reference compound]: 7.96

Ref: patent US6071908A
